Origin of values: the supplement of paper PMC8728848

glycan array binding signal (z-score) listing for selected binders.
Target: GlcNAc(b1-2)Man(a1-3)[GlcNAc(b1-2)Man(a1-6)]Man(b1-4)GlcNAc(b1-4)GlcNAc
Test: glycan array binding signal (z-score within array); higher = stronger binding
Conditions: glycan notation: IUPAC condensed, linker removed
The full list was thinned out, with the strongest signals kept by preference.

Some binders with recorded glycan array binding signal (z-score):
Entry Banana lectin (Musa acuminata) (protein) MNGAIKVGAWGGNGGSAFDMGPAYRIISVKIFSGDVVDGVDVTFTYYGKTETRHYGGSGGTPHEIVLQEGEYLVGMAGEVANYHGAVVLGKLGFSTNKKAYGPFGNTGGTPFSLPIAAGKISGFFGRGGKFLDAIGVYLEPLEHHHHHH , glycan array binding signal (z-score) reported as 0.105

Entry AT5G01260(PC)(40) (Arabidopsis thaliana), Q9LFB0 (protein) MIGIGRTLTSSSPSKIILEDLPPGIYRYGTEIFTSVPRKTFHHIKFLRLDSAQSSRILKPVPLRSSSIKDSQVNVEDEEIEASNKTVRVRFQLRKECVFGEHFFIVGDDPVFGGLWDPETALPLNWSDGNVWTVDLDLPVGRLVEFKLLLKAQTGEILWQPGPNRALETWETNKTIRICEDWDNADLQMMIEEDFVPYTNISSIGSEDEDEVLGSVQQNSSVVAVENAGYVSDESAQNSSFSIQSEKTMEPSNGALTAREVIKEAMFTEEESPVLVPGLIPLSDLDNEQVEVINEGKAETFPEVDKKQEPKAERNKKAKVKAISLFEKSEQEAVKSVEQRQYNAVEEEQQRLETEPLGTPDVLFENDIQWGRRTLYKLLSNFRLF , glycan array binding signal (z-score) reported as -0.443

Others:
Entry Cohesin-mDCIR (Macaca mulatta) (protein) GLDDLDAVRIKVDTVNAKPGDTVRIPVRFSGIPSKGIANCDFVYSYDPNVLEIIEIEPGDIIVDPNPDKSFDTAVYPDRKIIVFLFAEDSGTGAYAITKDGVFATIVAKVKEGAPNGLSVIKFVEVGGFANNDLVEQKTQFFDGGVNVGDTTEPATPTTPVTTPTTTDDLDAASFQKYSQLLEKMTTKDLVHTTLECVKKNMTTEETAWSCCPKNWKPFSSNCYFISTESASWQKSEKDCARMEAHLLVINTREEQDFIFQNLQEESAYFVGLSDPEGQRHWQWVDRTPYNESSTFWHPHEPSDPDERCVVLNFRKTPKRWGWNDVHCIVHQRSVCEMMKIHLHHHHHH , glycan array binding signal (z-score) reported as -0.313
